Source of measurements: patent US10150760B2

assay_system: human APJ receptor (Homo sapiens (Human))
Sequence (P35414 whole entry): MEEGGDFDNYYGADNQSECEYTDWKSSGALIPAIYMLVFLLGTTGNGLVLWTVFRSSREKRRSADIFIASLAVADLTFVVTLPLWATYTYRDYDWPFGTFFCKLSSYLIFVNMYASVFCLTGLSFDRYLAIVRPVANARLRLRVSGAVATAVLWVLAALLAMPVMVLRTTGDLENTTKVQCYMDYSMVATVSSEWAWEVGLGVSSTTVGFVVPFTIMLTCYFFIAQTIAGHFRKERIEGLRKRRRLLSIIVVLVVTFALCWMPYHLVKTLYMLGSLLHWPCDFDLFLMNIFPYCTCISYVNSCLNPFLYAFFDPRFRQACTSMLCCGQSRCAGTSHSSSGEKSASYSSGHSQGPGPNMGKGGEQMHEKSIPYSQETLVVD
assay_comment: [35S]GTPγS binding assay on membranes from CHO cells stably expressing human APJ receptor
condition_summary: read-out: Activity hAPJ SPA EC50 IP
Binary label based on EC50 with cut-off 400 nM: below gives condition met, not below gives condition not met.

# example entries with known answers
| molecule | assay_system | group_label |
| --- | --- | --- |
| COc1cccc(OC)c1-n1c(NS(=O)(=O)[C@@H](C)[C@H](OC)c2ncc(Cl)cn2)nnc1[C@H]1CCC(=O)N1 (single isomer, unassigned) [Example 398.0] | human APJ receptor (Homo sapiens (Human)) | condition not met |
| COc1cccc(OC)c1-n1c(NS(=O)(=O)[C@@H](C)[C@@H](OC(C)C)c2ccc(C)cn2)nnc1[C@H]1CCOC1 (single isomer, unassigned) | human APJ receptor (Homo sapiens (Human)) | condition met |
| CO[C@H](c1ncc(Cl)cn1)[C@H](C)S(=O)(=O)Nc1nnc([C@H]2COCCO2)n1C(C)C (single isomer, unassigned) [Example 301.0] | human APJ receptor (Homo sapiens (Human)) | condition not met |

Q. Just wondering, is EC50 of CO[C@H](c1ncc(Cl)cn1)[C@H](C)S(=O)(=O)Nc1nnc([C@H]2CCOC2)n1C1(C)CC1 (single isomer, unassigned) [Example 124.0] below 400 nM?
A. condition not met

Q. Just wondering, is EC50 of COc1cccc(OC)c1-n1c(NS(=O)(=O)[C@@H](C)[C@H](C)c2ncc(Cl)cn2)nnc1[C@H]1CCOC1 (single isomer, unassigned) [Example 61.0] below 400 nM?
A. condition met
